assay: Half life in Kunming mouse plasma at 10 mg/kg, iv administered as single dose measured after 5 to 360 mins by HPLC analysis; type: ADME, organism-based; conditions: time 5-360 min
readout label: half-life (h)
One number for each entry, in h.

[[record]]
compound = "O=C1c2c[n+]([O-])c3ccccc3c2C(=O)c2c1c1ccccc1n2Cc1cn([C@@H]2C[C@H](O)[C@@H](CO)O2)nn1"
value_unit = "h"
value_measured = 2.52


We next turn to a different compound, shown below.
Item under review: COc1cc([C@@H]2c3cc4c(cc3[C@@H](O[C@@H]3O[C@@H]5CO[C@@H](C)O[C@H]5[C@H](O)[C@H]3O)[C@H]3COC(=O)[C@H]23)OCO4)cc(OC)c1O [ETOPOSIDE] . Reported half-life?
0.75
